Catalogue of compounds with associated IC50
target: Recombinant full length PARP1 (Homo sapiens (Human)); assay: FP assay PARP1 (fluorescence anisotropy probe displacement); conditions: 20 nM PARP1, 8 nM fluorescent probe, 4 h, room temperature
Kindly write the number and append the unit.

Query block: Please report the measured IC50 for `CCc1cc2ncc(CN3CC[C@@H](Oc4ccc(C(=O)NC)nc4C)C3)cc2[nH]c1=O`
Result block: 4.4 nM

Query block: Find the measured IC50 of `CCc1cc2ncc(CN3CCC(Oc4ccc(C(=O)NC)nc4)CC3)cc2[nH]c1=O` and report it.
Result block: 18 nM

Query block: Supply measured IC50 of CCc1cc2ncc([C@@H](C)N3CC(Oc4ccc(C(=O)NC)nc4F)C3)cc2[nH]c1=O (single isomer, unassigned; enantiomer 1) [Compound 45] in your reply.
Result block: 6.4 nM

Query block: Answer with reported IC50 of `CCc1cc2ncc(CN3CC(Oc4cnc(C(=O)NC)c(F)c4)C3)cc2[nH]c1=O`
Result block: 7.7 nM

Query block: Return IC50 for the following compound: CCc1cc2cnc([C@@H](C)N3CC(Oc4ccc(C(=O)NC)nc4)C3)cc2[nH]c1=O (single isomer, unassigned) [Compound 47]
Result block: 5.8 nM

Query block: Identify measured IC50 corresponding to CCc1nc2ccc([C@H](C)N3CC(Oc4ccc(C(=O)NC)nc4)C3)cc2[nH]c1=O (single isomer, unassigned) [Compound 53]
Result block: 24.2 nM

Query block: Retrieve IC50 measured for CCc1nc2ccc(C(C)N3CC(Oc4ccc(C(=O)NC)nc4)C3)cc2[nH]c1=O (stereo not shown) and print it.
Result block: 14.8 nM

----------
target: Recombinant full length PARP2 (Homo sapiens (Human), UniProt Q9UGN5); test: FP assay PARP2 (fluorescence anisotropy probe displacement); details: 60 nM PARP2, 8 nM fluorescent probe, 4 h, room temperature
Sequence (Q9UGN5 whole entry): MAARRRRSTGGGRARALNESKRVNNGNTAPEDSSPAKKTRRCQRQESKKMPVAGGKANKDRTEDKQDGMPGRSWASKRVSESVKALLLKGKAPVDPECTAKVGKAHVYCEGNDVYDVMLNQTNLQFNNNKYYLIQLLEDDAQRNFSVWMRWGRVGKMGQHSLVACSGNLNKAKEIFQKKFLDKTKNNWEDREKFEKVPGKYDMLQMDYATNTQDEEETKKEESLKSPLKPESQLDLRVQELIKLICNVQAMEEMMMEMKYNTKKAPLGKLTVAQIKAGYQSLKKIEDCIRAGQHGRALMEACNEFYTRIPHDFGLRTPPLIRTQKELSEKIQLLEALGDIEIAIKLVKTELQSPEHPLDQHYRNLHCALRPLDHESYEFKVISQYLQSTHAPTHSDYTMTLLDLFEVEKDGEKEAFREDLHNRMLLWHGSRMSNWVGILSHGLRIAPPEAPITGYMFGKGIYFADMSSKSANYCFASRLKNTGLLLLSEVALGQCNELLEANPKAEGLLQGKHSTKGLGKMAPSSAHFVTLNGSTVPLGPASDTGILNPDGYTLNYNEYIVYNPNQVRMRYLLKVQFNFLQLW
pIC50: −log10 of the molar value.
assay.metric: pIC50

# compound, pIC50
measured = [
    ("CCc1cc2ncc(CN3C[C@@H](F)[C@@H](Oc4ccc(C(=O)NC)nc4)C3)cc2[nH]c1=O", "< 5.00"),
    ("CCc1cc2ncc(CN3CC[C@@H](Oc4ccc(C(=O)NC)nc4)C3)cc2[nH]c1=O", "< 5.00"),
    ("CNC(=O)c1ccc(OC2CCN(Cc3cnc4cc(C5CC5)c(=O)[nH]c4c3)C2)cn1 (stereo not shown)", "< 5.00"),
    ("CCc1cc2ncc(C(C)N3CC(Oc4ccc(C(=O)NC)nc4)C3)cc2[nH]c1=O (racemic)", 5.43),
    ("CCc1cc2ncc(C(C)N3CC(Oc4ccc(C(=O)NC)nc4C)C3)cc2[nH]c1=O (stereo not shown)", "< 5.00"),
]

Query block: Return pIC50 for the following compound: `CCc1cc2ncc(CN3C[C@H](Oc4ccc(C(=O)NC)nc4)[C@@H](F)C3)cc2[nH]c1=O`
Result block: < 5.00

Query block: State its pIC50 for this compound: CCc1cc2ncc([C@@H](C)N3CC(Oc4ccc(C(=O)NC)nc4F)C3)cc2[nH]c1=O (single isomer, unassigned; enantiomer 1) [Compound 45]
Result block: 6.44

----------
Listed next: entries and their corresponding efflux ratio at 120 min, 5 μM.
experiment: Caco2 (A-B/B-A) permeability; assay type: in vitro ADME; conditions: human, Caco-2, pH 7.4, PappB-A/PappA-B; read-out: Caco2 efflux ratio (ER)
Answer with a bare number; do not write a unit.

# compound, efflux ratio at 120 min, 5 μM
rows = [
    ("CCc1cc2ncc([C@@H](C)N3CC(Oc4ccc(C(=O)NC)nc4)C3)cc2[nH]c1=O [Compound 4]", 7.49),
    ("CCc1cc2ncc([C@@H](C)N3CC(Oc4ccc(C(=O)NC)nc4F)C3)cc2[nH]c1=O (single isomer, unassigned; enantiomer 1) [Compound 45]", 10.5),
    ("CCc1cc2cnc(C(C)N3CC(Oc4ccc(C(=O)NC)nc4)C3)cc2[nH]c1=O (stereo not shown) [Compound 51]", 6.4),
    ("CCc1cc2ncc([C@H](C)N3CC[C@@H](Oc4ccc(C(=O)NC)nc4)C3)cc2[nH]c1=O (single isomer, unassigned) [Compound 12]", 10.3),
    ("CCc1cc2cnc(CN3CC[C@@H](Oc4ccc(C(=O)NC)nc4)C3)cc2[nH]c1=O [Compound 63]", 7.96),
    ("CCc1cc2ncc([C@H](C)N3CC(Oc4ccc(C(=O)NC)nc4)C3)cc2[nH]c1=O [Compound 5]", 9.78),
]

Could you now look at the following compound, please?
Query block: Indicate the recorded efflux ratio at 120 min, 5 μM value for this compound: CCc1nc2ccc([C@H](C)N3CC(Oc4ccc(C(=O)NC)nc4F)C3)cc2[nH]c1=O (single isomer, unassigned) [Compound 56]
Result block: 3.01

----------
test: Caco2 (A-B/B-A) permeability; format: in vitro ADME; conditions: human, Caco-2, pH 7.4, PappB-A/PappA-B; read-out: Caco2 efflux ratio (ER)
Known efflux ratio at 120 min, 5 μM of a selection of molecules
# answer = number (no unit)

Example entries begin here.
# molecule, assay.metric, numeric.result
rows = [
    ("CCc1cc2ncc(CN3CCC(N(C)c4ccc(C(=O)NC)nc4)CC3)cc2[nH]c1=O", "efflux ratio at 120 min, 5 μM", 8.81),
    ("CCc1nc2ccc([C@H](C)N3CC(Oc4ccc(C(=O)NC)nc4)C3)cc2[nH]c1=O (single isomer, unassigned)", "efflux ratio at 120 min, 5 μM", 2.09),
    ("CCc1cc2ncc(CN3CC(Oc4cnc(C(=O)NC)c(F)c4)C3)cc2[nH]c1=O", "efflux ratio at 120 min, 5 μM", 19.2),
    ("CCc1cc2cnc(CN3CC[C@@H](Oc4ccc(C(=O)NC)nc4F)C3)cc2[nH]c1=O", "efflux ratio at 120 min, 5 μM", 12.7),
    ("CCc1nc2ccc(C(C)N3CC(Oc4ccc(C(=O)NC)nc4)C3)cc2[nH]c1=O (stereo not shown)", "efflux ratio at 120 min, 5 μM", 2.16),
]

Okay, next one:
Query block: State, in one line, measured efflux ratio at 120 min, 5 μM of CCc1cc2ncc(CN3CCC(Oc4ccc(C(=O)NC)nc4)C3)cc2[nH]c1=O (stereo not shown)
Result block: 10.3

----------
test system: Caco-2 cell monolayers; assay: Caco2 (A-B/B-A) permeability; format: in vitro ADME; conditions: basolateral-to-apical, 5 μM, HBSS pH 7.4, 120 min, 37° C.
assay.metric: Caco2 B-A apparent permeability (Papp)

Solved entries:
# compound, Caco2 B-A apparent permeability (Papp)
records = [
    ("CCc1nc2ccc([C@H](C)N3CC(Oc4ccc(C(=O)NC)nc4F)C3)cc2[nH]c1=O (single isomer, unassigned)", "29.21 10*−6 cm/s"),
    ("CCc1cc2cnc([C@@H](C)N3CC(Oc4ccc(C(=O)NC)nc4)C3)cc2[nH]c1=O (single isomer, unassigned)", "22.47 10*−6 cm/s"),
    ("CCc1cc2ncc([C@H](C)N3CC[C@@H](Oc4ccc(C(=O)NC)nc4)C3)cc2[nH]c1=O (single isomer, unassigned)", "30.43 10*−6 cm/s"),
    ("CCc1nc2ccc([C@H](C)N3CC(Oc4ccc(C(=O)NC)nc4)C3)cc2[nH]c1=O (single isomer, unassigned)", "33.19 10*−6 cm/s"),
    ("CCc1cc2ncc([C@@H](C)N3CC(Oc4ccc(C(=O)NC)nc4F)C3)cc2[nH]c1=O (single isomer, unassigned; enantiomer 2)", "44.49 10*−6 cm/s"),
]

Turning now to a further compound:
Query block: Answer with the recorded Caco2 B-A apparent permeability (Papp) of CCc1cc2cnc([C@H](C)N3CC(Oc4ccc(C(=O)NC)nc4F)C3)cc2[nH]c1=O (single isomer, unassigned; enantiomer 2) only.
Result block: 32.1 10*−6 cm/s

----------
target: Recombinant full length PARP1 (Homo sapiens (Human), UniProt P09874); assay: FP assay PARP1 (fluorescence anisotropy probe displacement); settings: 20 nM PARP1, 8 nM fluorescent probe, 4 h, room temperature
Sequence (P09874 whole entry): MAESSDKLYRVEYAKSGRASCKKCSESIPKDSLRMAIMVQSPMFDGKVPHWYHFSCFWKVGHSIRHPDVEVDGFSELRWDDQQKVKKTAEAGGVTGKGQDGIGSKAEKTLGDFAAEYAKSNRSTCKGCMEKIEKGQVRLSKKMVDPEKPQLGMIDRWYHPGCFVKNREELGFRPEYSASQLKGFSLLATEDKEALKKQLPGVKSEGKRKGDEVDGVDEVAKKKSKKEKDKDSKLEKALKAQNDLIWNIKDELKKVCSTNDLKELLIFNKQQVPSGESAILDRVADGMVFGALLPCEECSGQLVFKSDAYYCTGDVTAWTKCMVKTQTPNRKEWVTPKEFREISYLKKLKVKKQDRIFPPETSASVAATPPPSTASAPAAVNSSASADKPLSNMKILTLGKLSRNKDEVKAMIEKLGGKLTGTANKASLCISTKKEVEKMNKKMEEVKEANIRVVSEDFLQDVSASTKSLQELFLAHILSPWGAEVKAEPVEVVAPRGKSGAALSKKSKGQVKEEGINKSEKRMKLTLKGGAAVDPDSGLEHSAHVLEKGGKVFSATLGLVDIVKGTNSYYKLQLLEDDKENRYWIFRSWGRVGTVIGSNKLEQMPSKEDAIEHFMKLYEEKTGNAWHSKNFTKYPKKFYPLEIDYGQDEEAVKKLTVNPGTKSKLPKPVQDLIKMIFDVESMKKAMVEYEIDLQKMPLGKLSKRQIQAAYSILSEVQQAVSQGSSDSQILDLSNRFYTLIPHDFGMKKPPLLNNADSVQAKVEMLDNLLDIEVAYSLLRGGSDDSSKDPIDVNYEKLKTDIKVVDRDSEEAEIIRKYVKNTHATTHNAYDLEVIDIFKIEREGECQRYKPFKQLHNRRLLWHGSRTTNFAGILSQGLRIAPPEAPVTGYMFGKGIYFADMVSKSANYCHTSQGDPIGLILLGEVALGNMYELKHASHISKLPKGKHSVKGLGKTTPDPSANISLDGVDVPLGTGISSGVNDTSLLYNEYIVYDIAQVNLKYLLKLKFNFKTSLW
assay.metric: pIC50
Remember, pIC50 is on a log scale: it is -log10 of the molar concentration.

Examples from the recorded data:
# molecule, assay.metric, numeric.result
records = [
    ("CNC(=O)c1ccc(OC2CN(Cc3cnc4cc(C5CC5)c(=O)[nH]c4c3)C2)cn1", "pIC50", 8.15),
    ("CCc1cc2ncc(CN3CC(N(C)c4ccc(C(=O)NC)nc4)C3)cc2[nH]c1=O", "pIC50", 8.37),
    ("CCc1cc2ncc(C(C)N3CC(Oc4ccc(C(=O)NC)nc4F)C3)cc2[nH]c1=O (centres unmarked)", "pIC50", 8.46),
    ("CCc1cc2ncc(CN3CC(Oc4ccc(C(=O)NC)nc4C)C3)cc2[nH]c1=O", "pIC50", 8.36),
    ("CCc1nc2ccc([C@H](C)N3CC(Oc4ccc(C(=O)NC)nc4F)C3)cc2[nH]c1=O (single isomer, unassigned) [Compound 56]", "pIC50", 7.96),
]

Query block: Using the record for `CCc1cc2ncc(CN3C[C@@H](F)[C@@H](Oc4ccc(C(=O)NC)nc4)C3)cc2[nH]c1=O` , state its measured pIC50.
Result block: 8.42

Query block: Given the molecule `CCc1nc2ccc(CN3CC[C@@H](Oc4ccc(C(=O)NC)nc4)C3)cc2[nH]c1=O` , write its reported pIC50.
Result block: 8.03

Query block: Return pIC50 (reported value) for this molecule: CCc1cc2cnc([C@H](C)N3CC(Oc4ccc(C(=O)NC)nc4F)C3)cc2[nH]c1=O (single isomer, unassigned; enantiomer 1) [Compound 49]
Result block: 7.84

Values from patent US20250289814A1
